As shown below, each of these compounds has a reported ED50 value.
Test system: Mus musculus
assay_protocol: Anticonvulsant activity in ip dosed CD1 albino mouse assessed as protection against 32 mA-current- for 3 secs induced seizure by 6Hz psychomotor seizure test
Type: functional
Write down the numeric answer in mg/kg and omit the unit.

compound	ED50 (mg/kg)
CCC1(C)CC(=O)N(CC(=O)N2CCN(c3cccc(C(F)(F)F)c3)CC2)C1=O (centres undefined)	90.3
CC1CC(=O)N(CC(=O)N2CCN(c3ccccc3Cl)CC2)C1=O (centres undefined)	152
CCC1(C)CC(=O)N(CC(=O)N2CCN(c3ccccc3Cl)CC2)C1=O (centres undefined)	73.3

Moving on to another compound below.
Please report ED50 with Mus musculus for item CCC1(C)CC(=O)N(CC(=O)N2CCN(c3ccc(Cl)cc3)CC2)C1=O (centres undefined) . 128

----------
Test system: Mus musculus
assay_protocol: Anticonvulsant activity in ip dosed CD1 albino mouse assessed as protection against maximal electroshock-induced seizures
Type: functional
Note to self: ED50 under 70 mg/kg means criterion met, ties and anything higher get criterion not met.

Here's what some known entries look like.
compound	assigned_label
CC1CC(=O)N(CC(=O)N2CCN(c3ccc(Cl)cc3)CC2)C1=O (configuration not stated)	criterion met
CC1CC(=O)N(CC(=O)N2CCN(c3ccc(F)cc3)CC2)C1=O (configuration not stated)	criterion not met
CC1CC(=O)N(CC(=O)N2CCN(c3cccc(Cl)c3)CC2)C1=O (configuration not stated)	criterion not met
CCC1(C)CC(=O)N(CC(=O)N2CCN(c3ccccc3Cl)CC2)C1=O (configuration not stated)	criterion not met

// next entry
Lab note: confirm whether the reported ED50 for this compound is below 70 mg/kg, equality not counting. compound: CC1CC(=O)N(CC(=O)N2CCN(c3ccc(Cl)c(Cl)c3)CC2)C1=O (configuration not stated) criterion not met

----------
Test system: Mus musculus
assay_protocol: Neurotoxicity in CD1 albino mouse assessed as acute motor impairment at 100 to 300 mg/kg, ip after 0.5 hrs by rotarod test
Type: toxicity, organism-based
measurement_parameters: in vivo
recorded_endpoint: MTC (mg/kg)
Write the value in mg/kg as a bare number.

compound	MTC (mg/kg)
Cc1cccc(N2CCN(C(=O)CN3C(=O)CC(C)C3=O)CC2)c1 (configuration not stated)	300

Give reported MTC value for CCC1(C)CC(=O)N(CC(=O)N2CCN(c3ccccc3C)CC2)C1=O (configuration not stated) 300

Entry CCC1(C)CC(=O)N(CC(=O)N2CCN(c3ccccc3Cl)CC2)C1=O (configuration not stated) needs its MTC filled in; supply it. 300

Fill in MTC for record CCC1(C)CC(=O)N(CC(=O)N2CCN(c3ccc(Cl)cc3)CC2)C1=O (configuration not stated) 300

Note MTC for the compound shown: CCC1(C)CC(=O)N(CC(=O)N2CCN(c3cccc(C(F)(F)F)c3)CC2)C1=O (configuration not stated) 300

Give MTC for the following compound: CC1CC(=O)N(CC(=O)N2CCN(c3ccccc3F)CC2)C1=O (configuration not stated) 300

----------
Test system: Mus musculus
assay_protocol: Neurotoxicity in CD1 albino mouse assessed as acute motor impairment at 300 mg/kg, ip measured after 0.5 hrs by rotarod test
Format: toxicity, organism-based
measurement_parameters: in vivo
recorded_endpoint: Activity

Solved cases below.
molecule	Activity
CC1CC(=O)N(CC(=O)N2CCN(c3cccc(Cl)c3)CC2)C1=O (stereo unspecified)	Non-toxic
CCCC(CCC)C(=O)O [VALPROIC ACID]	Non-toxic
CC1CC(=O)N(CC(=O)N2CCN(c3ccc(Cl)cc3)CC2)C1=O (stereo unspecified)	Non-toxic
CCC1(C)CC(=O)N(CC(=O)N2CCN(c3cccc(C)c3)CC2)C1=O (stereo unspecified)	Non-toxic

Give the value of Activity reported for the following: CC1CC(=O)N(CC(=O)N2CCN(c3ccc(F)cc3)CC2)C1=O (stereo unspecified) Non-toxic

Kindly indicate its recorded Activity. Item: CCC1(C)CC(=O)N(CC(=O)N2CCN(c3ccc(Cl)c(Cl)c3)CC2)C1=O (stereo unspecified) Non-toxic

----------
Quick reference for Time among some molecules
Tested on: Mus musculus
assay_protocol: Anticonvulsant activity in ip dosed CD1 albino mouse assessed as time to peak effect
Assay type: functional
Record the value in h, omitting the unit from your answer.

molecule	measured_on	value_units	Time
CC1CC(=O)N(CC(=O)N2CCN(c3ccc(F)cc3)CC2)C1=O (centres undefined)	Mus musculus	h	1
CCC1(C)CC(=O)NC1=O (centres undefined) [ETHOSUXIMIDE]	Mus musculus	h	0.25
CC1CC(=O)N(CC(=O)N2CCN(c3ccc(Cl)c(Cl)c3)CC2)C1=O (centres undefined)	Mus musculus	h	1
CC1CC(=O)N(CC(=O)N2CCN(c3cccc(Cl)c3Cl)CC2)C1=O (centres undefined)	Mus musculus	h	1
CCC1(C)CC(=O)N(CC(=O)N2CCN(c3cccc(C(F)(F)F)c3)CC2)C1=O (centres undefined)	Mus musculus	h	0.5
CCC1(C)CC(=O)N(CC(=O)N2CCN(c3ccccc3Cl)CC2)C1=O (centres undefined)	Mus musculus	h	0.5
O=C1NC(=O)C(c2ccccc2)(c2ccccc2)N1 [PHENYTOIN]	Mus musculus	h	1
CCCC(CCC)C(=O)O [VALPROIC ACID]	Mus musculus	h	0.5

Please report the measured Time for CCC1(C)CC(=O)N(CC(=O)N2CCN(c3ccc(F)cc3)CC2)C1=O (centres undefined) 0.5

----------
Test system: Mus musculus
assay_protocol: Neurotoxicity in CD1 albino mouse assessed as acute motor impairment at 100 to 300 mg/kg, ip after 0.5 hrs by rotarod test
Assay type: toxicity, organism-based
measurement_parameters: in vivo
recorded_endpoint: MTC

// solved cases for MTC follow
compound	MTC
Cc1ccccc1N1CCN(C(=O)CN2C(=O)CC(C)C2=O)CC1 (stereo unspecified)	300 mg/kg
CC1CC(=O)N(CC(=O)N2CCN(c3ccccc3)CC2)C1=O (stereo unspecified)	300 mg/kg
CCC1(C)CC(=O)N(CC(=O)N2CCN(c3ccc(F)cc3)CC2)C1=O (stereo unspecified)	300 mg/kg
CC1CC(=O)N(CC(=O)N2CCN(c3cccc(C(F)(F)F)c3)CC2)C1=O (stereo unspecified)	300 mg/kg

Give the reported MTC for this compound. "O=C1NC(=O)C(c2ccccc2)(c2ccccc2)N1" 100 mg/kg

Quickly give me recorded MTC for CC1CC(=O)N(CC(=O)N2CCN(c3ccccc3Cl)CC2)C1=O (stereo unspecified) 300 mg/kg
